From: paper PMC11971462

# System: gastric, pancreatic and lung cancer cells
# experiment: MTT cell viability, summary for other tumor cells
# Assay type: cell-based
# measurement-conditions: Homo sapiens, 72 h, summary statement
readout-label: IC50

Query block: Annotate the compound C#CCN(Cc1cc2cc(OCCCN3CCCCC3)ccc2n1S(=O)(=O)c1ccccc1)C(=O)CCCCCCC(=O)NO [DDI199] with its measured IC50.
Result block: < 3000 nM

---

# Test system: GNS179 patient-derived glioma stem cells
# experiment: MTT cell viability
# Assay type: cell-based
# measurement-conditions: Homo sapiens, 72 h
readout-label: IC50 (µM)
API: value field is a number in µM; no unit string.

Query block: Annotate the compound C#CCN(Cc1cc2cc(OCCCN3CCCCC3)ccc2n1S(=O)(=O)c1ccccc1)C(=O)CCCCCCC(=O)NO with its measured IC50.
Result block: 5.28
